System: Micrococcus luteus
Assay: Antibacterial activity against Micrococcus luteus ATCC 15307 after 16 to 48 hrs
Assay type: functional
Threshold-based label: MIC under 10 µM gives MET, MIC not under 10 µM gives NOT MET.

Enquiry: Threshold test, MIC < 10 µM: `COC(=O)c1cc2cc3c(c(O)c2c(=O)o1)O[C@]1(CC3)Cc2c(O)c3c(c(O)c2O1)C(=O)C(OC)=CC3=O`
Return: MET

Enquiry: Threshold test, MIC < 10 µM: `Cc1cc(=O)n2c3c(c4c(cc13)c(CO)cc(=O)n4C)OC2`
Return: NOT MET

Enquiry: Threshold test, MIC < 10 µM: CC1(C)S[C@@H]2[C@H](NC(=O)[C@H](N)c3ccccc3)C(=O)N2[C@H]1C(=O)O [AMPICILLIN]
Return: NOT MET

Enquiry: Threshold test, MIC < 10 µM: `COC(=O)c1cc2cc3c(c(O)c2c(=O)o1)O[C@]1(CC3)CC2=C(O1)C(=O)c1c(O)c(OC)cc(OC)c1C2=O`
Return: MET

Enquiry: Threshold test, MIC < 10 µM: NC[C@H]1O[C@H](O[C@H]2[C@H](O)[C@@H](O[C@H]3O[C@H](CO)[C@@H](O)[C@H](N)[C@H]3O)[C@H](N)C[C@@H]2N)[C@H](O)[C@@H](O)[C@@H]1O [KANAMYCIN]
Return: NOT MET

Enquiry: Threshold test, MIC < 10 µM: `C/C=C/C=C/[C@H]1C[C@H](O)CCN1`
Return: NOT MET

Enquiry: Threshold test, MIC < 10 µM: `Cc1cc(=O)n2c3c(c4c(cc13)c(C(=O)O)cc(=O)n4C)OC2`
Return: NOT MET

Enquiry: Threshold test, MIC < 10 µM: `Cc1cc(=O)[nH]c2c1C(=O)c1c(C)cc(=O)n(C)c1C2=O`
Return: NOT MET

Enquiry: Threshold test, MIC < 10 µM: `Cc1cc(=O)[nH]c2c(O)c3c(cc12)c(CO)cc(=O)n3C`
Return: NOT MET

Enquiry: Threshold test, MIC < 10 µM: `COC(=O)c1cc2cc(CCc3cc4c(o3)C(=O)c3c(O)c(OC)cc(OC)c3C4=O)c(O)c(O)c2c(=O)o1`
Return: MET

Enquiry: Threshold test, MIC < 10 µM: `Cc1cc(=O)n(C)c2c(O)c3c(cc12)c(C)cc(=O)n3C`
Return: NOT MET
